assay: Single ascending dose study, plasma pharmacokinetics of Compound (1) and GHB; type: in vivo, human; conditions: human, plasma, po, 4.5 g, Cohort 5 (4.50 g) single oral dose, fasted; read-out: Compound (1) plasma t1/2, Mean (converted)

| compound | units | half-life |
| --- | --- | --- |
| CC(C)[C@H](N)C(=O)OCCCC(=O)O [Compound (1), 4-((L-valyl)oxy)butanoic acid] | min | 68.4 |

###

assay: Single ascending dose study, plasma pharmacokinetics of Compound (1) and GHB; type: in vivo, human; conditions: human, plasma, po, 1.5 g, Cohort 3 (1.50 g) single oral dose, fasted; read-out: Compound (1) plasma t1/2, Median (converted)

| input_smiles | half-life (h) |
| --- | --- |
| CC(C)[C@H](N)C(=O)OCCCC(=O)O | 1.06 |

###

test: Single ascending dose study, plasma pharmacokinetics of Compound (1) and GHB; type: in vivo, human; details: human, plasma, po, 3 g, Cohort 4 (3.00 g) single oral dose, fasted; read-out: Compound (1) plasma AUC0-tlast, Mean
reported_metric: AUC(0-t) (ng·h/mL)

| input_smiles | reported_metric | measured_value |
| --- | --- | --- |
| CC(C)[C@H](N)C(=O)OCCCC(=O)O | AUC(0-t) | 7510 |

###

assay: Multiple ascending dose study, plasma pharmacokinetics of Compound (1) and GHB; type: in vivo, human; conditions: human, plasma, oral, 6 g/day, Cohort 10 (6.0 g/day in a single dose), Dosing Day 10; read-out: Compound (1) plasma AUC0-inf, Median

| input_smiles | AUC(0-inf) [ng·h/mL] |
| --- | --- |
| CC(C)[C@H](N)C(=O)OCCCC(=O)O | 16900 |

###

assay: Single ascending dose study, plasma pharmacokinetics of Compound (1) and GHB; format: in vivo, human; settings: human, plasma, po, 3 g, Cohort 4 (3.00 g) single oral dose, fasted; read-out: Compound (1) plasma Cmax, Mean
reported_metric: Cmax (ng/mL)

| compound | measured_value |
| --- | --- |
| CC(C)[C@H](N)C(=O)OCCCC(=O)O [Compound (1), 4-((L-valyl)oxy)butanoic acid] | 11300 |

###

experiment: Single ascending dose study, plasma pharmacokinetics of Compound (1) and GHB; type: in vivo, human; settings: human, plasma, po, 4.5 g, Cohort 5 (4.50 g) single oral dose, fasted; read-out: Compound (1) plasma AUC0-inf, Median

| input_smiles | units | AUC(0-inf) |
| --- | --- | --- |
| CC(C)[C@H](N)C(=O)OCCCC(=O)O | ng·h/mL | 11600 |

###

assay: Food effect and relative bioavailability crossover study, Compound (1) vs sodium oxybate; conditions: human, plasma, po, 7.25 g, Compound (1) plasma AUC0-tlast, Median, 7.25 g Compound (1) oral, Fasted
reported_metric: AUC(0-t) (ng·h/mL)

| input_smiles | reported_metric | measured_value |
| --- | --- | --- |
| CC(C)[C@H](N)C(=O)OCCCC(=O)O | AUC(0-t) | 22500 |

###

assay: Single ascending dose study, plasma pharmacokinetics of Compound (1) and GHB; assay type: in vivo, human; details: human, plasma, 0.1 g; Cohort 1 (0.10 g) single oral dose, fasted; read-out: Compound (1) plasma Tmax, Median
reported_metric: Tmax (min)

| molecule | reported_metric | units | measured_value |
| --- | --- | --- | --- |
| CC(C)[C@H](N)C(=O)OCCCC(=O)O [Compound (1), 4-((L-valyl)oxy)butanoic acid] | Tmax | min | 15 |

###

experiment: Multiple ascending dose study, plasma pharmacokinetics of Compound (1) and GHB; assay type: in vivo, human; conditions: human, plasma, oral, 6 g/day, Cohort 10 (6.0 g/day in a single dose), Dosing Day 10; read-out: Compound (1) plasma T1/2, Median (converted)

| input_smiles | units | half-life |
| --- | --- | --- |
| CC(C)[C@H](N)C(=O)OCCCC(=O)O | min | 21 |

###

assay: Multiple ascending dose study, plasma pharmacokinetics of Compound (1) and GHB; format: in vivo, human; details: human, plasma, oral, 4.5 g/day, Cohort 9 (4.5 g/day in a single dose), Dosing Day 4; read-out: Compound (1) plasma AUC0-tlast, Median

| input_smiles | AUC(0-t) (µg·h/mL) |
| --- | --- |
| CC(C)[C@H](N)C(=O)OCCCC(=O)O | 11.7 |

###

Assay: Multiple ascending dose study, plasma pharmacokinetics of Compound (1) and GHB
Format: in vivo, human
Details: human, plasma, oral, 4.5 g/day, Cohort 9 (4.5 g/day in a single dose), Dosing Day 4; read-out: Compound (1) plasma Cmax, Mean
Protocol: The plasma concentrations of Compound (1) and GHB in plasma in healthy human subjects were measured using liquid chromatography tandem mass-spectroscopy and evaluated using PHOENIX™ WINNONLIN® version 8.1 (Pharsight Corporation, USA) and MICROSOFT® EXCEL® (Microsoft Corporation, USA). All randomized subjects who received Compound (1), with available pharmacokinetic (PK) data and without relevant deviations interfering with the PK evaluations, were included. […]
reported_metric: Cmax

| input_smiles | measured_value |
| --- | --- |
| CC(C)[C@H](N)C(=O)OCCCC(=O)O | 15600 ng/mL |

###

experiment: Multiple ascending dose study, plasma pharmacokinetics of Compound (1) and GHB; type: in vivo, human; conditions: human, plasma, oral, 6 g/day, Cohort 10 (6.0 g/day in a single dose), Dosing Day 10; read-out: Compound (1) plasma AUC0-tlast, Median

| compound | AUC(0-t) (ng·h/mL) |
| --- | --- |
| CC(C)[C@H](N)C(=O)OCCCC(=O)O [Compound (1), 4-((L-valyl)oxy)butanoic acid] | 16800 |

###

assay: Multiple ascending dose study, plasma pharmacokinetics of Compound (1) and GHB; type: in vivo, human; conditions: human, plasma, oral, 6 g/day, Cohort 8 (6.0 g/day divided into equal 2 doses), Dosing Day 10; read-out: Compound (1) plasma Cmax, Median

| compound | units | Cmax |
| --- | --- | --- |
| CC(C)[C@H](N)C(=O)OCCCC(=O)O [Compound (1), 4-((L-valyl)oxy)butanoic acid] | ng/mL | 11300 |

###

assay: Multiple ascending dose study, plasma pharmacokinetics of Compound (1) and GHB; type: in vivo, human; settings: human, plasma, oral, 4.5 g/day, Cohort 9 (4.5 g/day in a single dose), Dosing Day 10; read-out: Compound (1) plasma AUC0-tlast, Mean
reported_metric: AUC(0-t) (ng·h/mL)

| input_smiles | reported_metric | units | measured_value |
| --- | --- | --- | --- |
| CC(C)[C@H](N)C(=O)OCCCC(=O)O | AUC(0-t) | ng·h/mL | 10700 |

###

assay: Multiple ascending dose study, plasma pharmacokinetics of Compound (1) and GHB; assay type: in vivo, human; details: human, plasma, oral; Cohort 8 (6.0 g/day divided into equal 2 doses), Dosing Day 4; read-out: Compound (1) plasma Tmax, Median
reported_metric: Tmax (min)

| input_smiles | reported_metric | measured_value |
| --- | --- | --- |
| CC(C)[C@H](N)C(=O)OCCCC(=O)O | Tmax | 30 |

###

assay: Food effect and relative bioavailability crossover study, Compound (1) vs sodium oxybate; conditions: human, plasma, po, 7.25 g, Compound (1) plasma AUC0-tlast, Mean, 7.25 g Compound (1) oral, Fasted
reported_metric: AUC(0-t) (ng·h/mL)

| input_smiles | reported_metric | measured_value |
| --- | --- | --- |
| CC(C)[C@H](N)C(=O)OCCCC(=O)O | AUC(0-t) | 23900 |

###

assay: Single ascending dose study, plasma pharmacokinetics of Compound (1) and GHB; assay type: in vivo, human; settings: human, plasma, po, 7.25 g, Cohort 7 (7.25 g) single oral dose, fasted; read-out: Compound (1) plasma t1/2, Mean (converted)
reported_metric: half-life (h)

| input_smiles | measured_value |
| --- | --- |
| CC(C)[C@H](N)C(=O)OCCCC(=O)O | 1.11 |

###

assay: Multiple ascending dose study, plasma pharmacokinetics of Compound (1) and GHB; format: in vivo, human; settings: human, plasma, oral; Cohort 9 (4.5 g/day in a single dose), Dosing Day 4; read-out: Compound (1) plasma Tmax, Median

| input_smiles | units | Tmax |
| --- | --- | --- |
| CC(C)[C@H](N)C(=O)OCCCC(=O)O | min | 30 |

###

assay: Single ascending dose study, plasma pharmacokinetics of Compound (1) and GHB; format: in vivo, human; conditions: human, plasma; Cohort 6 (6.00 g) single oral dose, fasted; read-out: Compound (1) plasma Tmax, Median
reported_metric: Tmax (min)

| input_smiles | reported_metric | units | measured_value |
| --- | --- | --- | --- |
| CC(C)[C@H](N)C(=O)OCCCC(=O)O | Tmax | min | 30 |

###

assay: Multiple ascending dose study, plasma pharmacokinetics of Compound (1) and GHB; type: in vivo, human; conditions: human, plasma, oral, 6 g/day, Cohort 8 (6.0 g/day divided into equal 2 doses), Dosing Day 4; read-out: Compound (1) plasma AUC0-inf, Median

| input_smiles | AUC(0-inf), ng·h/mL |
| --- | --- |
| CC(C)[C@H](N)C(=O)OCCCC(=O)O | 14800 |
